System: human lung cancer strain NCI-H441;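 note: cell proliferation inhibition after four days measured by CellTiter-Glo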
*1 amine or outer side, *2 acyl side, *3 side chain or, on linkers, in order; H or OH if unused. Where a SMILES comes first, the peptide text is derived from it. Bridges are numbered along the chain shown (N, C = ends). [ ]: non-standard residue; d: D form. The star is where a group is joined. hPhe(3-Cl-4-CF3) = N[C@@H](CCc1ccc(C(F)(F)F)c(Cl)c1)C(=O)O; X34 = Cc1ccc(C[C@@H](C(=O)[*:2])N(CCC(C)(C)C)[*:1])cc1; NMeGly(cPent) = CN[C@H](C(=O)O)C1CCCC1; NMeD = CN[C@@H](CC(=O)O)C(=O)O; NMeL = CN[C@@H](CC(C)C)C(=O)O; Morpholide = C1CN(*)CCO1; NMeA = CN[C@@H](C)C(=O)O; Ac5c = NC1(C(=O)O)CCCC1; Aze = O=C(O)[C@@H]1CCN1; Sar = CNCC(=O)O
VALUE TYPE: IC50 (nM)
Answer in nM, number only, no unit symbol.

query: State recorded IC50 with human lung cancer strain NCI-H441, entry CC[C@H](C)[C@@H]1NC(=O)[C@H](CC)N(C)C(=O)C[C@@H](C(=O)N(C)C)N(C)C(=O)[C@H](C2CCCC2)N(C)C(=O)C2(CCC2)NC(=O)CN(CC)C(=O)[C@H](CCc2cc(F)c(C(F)(F)F)c(F)c2)NC(=O)CN(C)C(=O)[C@H](Cc2ccc(C(F)(F)F)cc2)N2CC/C=C\C[C@@H](C2=O)N(C)C(=O)CN(C)C1=O , no comment.
result: 75.3

query: # lookup: human lung cancer strain NCI-H441 IC50, key = CCO[C@@H]1C[C@H]2C(=O)NC3(CCC3)C(=O)N(C)[C@@H](C3CCCC3)C(=O)N(C)[C@H](C(=O)N(C)C)CC(=O)N(CC)[C@@H](CC(C)C)C(=O)N[C@@H]([C@@H](C)CC)C(=O)N(C)CC(=O)N(C)[C@H]3CC(C)=C(C)CN(C3=O)[C@@H](Cc3ccc(C(F)(F)F)cc3)C(=O)N(C)CC(=O)N[C@@H](CCc3cc(F)c(C(F)(F)F)c(F)c3)C(=O)N2C1
result: 286

query: Print human lung cancer strain NCI-H441 IC50 for CCC(CC)[C@H]1C(=O)N(C)[C@H](C(=O)N(C)C)CC(=O)N(C)[C@@H](COC)C(=O)N[C@@H]([C@@H](C)CC)C(=O)N(C)CC(=O)N(C)[C@H]2C/C=C\CCN(C2=O)[C@@H](CC2CCC(F)(F)CC2)C(=O)N(C)CC(=O)N[C@@H](CCc2cc(F)c(C(F)(F)F)c(F)c2)C(=O)N2C[C@@H](C)C[C@H]2C(=O)NC2(CC(C)(C)C2)C(=O)N1C .
result: 26.9

query: Answer briefly: IC50 recorded on human lung cancer strain NCI-H441 for CCO[C@@H]1C[C@H]2C(=O)NC3(CCC3)C(=O)N(C)[C@@H](C3CCCC3)C(=O)N(C)[C@H](C(=O)N(C)C)CC(=O)N(C)[C@@H](CC3CC3)C(=O)N[C@@H]([C@@H](C)CC)C(=O)N(C)CC(=O)N(C)[C@H]3C/C=C\CCN(C3=O)[C@@H](Cc3ccc(F)cc3C)C(=O)N(C)CC(=O)N[C@@H](CCc3ccc(Cl)c(Cl)c3)C(=O)N2C1
result: 216

query: Output reported IC50 of the molecule CCO[C@H](C)[C@@H]1NC(=O)[C@H](CC(C)C)N(C)C(=O)C[C@@H](C(=O)N(C)CC)N(C)C(=O)[C@H](C2CCCC2)N(C)C(=O)C2(CC(C)(C)C2)NC(=O)[C@@H]2C[C@H](C)CN2C(=O)[C@H](CCc2ccc(C(F)(F)F)c(OC)c2)NC(=O)CN(C)C(=O)[C@H](Cc2ccc(C)cc2)N2CC/C=C\C[C@@H](C2=O)N(C)C(=O)CN(C)C1=O on human lung cancer strain NCI-H441.
result: 115

query: Provide human lung cancer strain NCI-H441 IC50 reading for CCC[C@H]1C(=O)N[C@@H]([C@@H](C)CC)C(=O)N(C2CC2)CC(=O)N(C)[C@H]2C/C=C\CCN(C2=O)[C@@H](CC2CCC(F)(F)CC2)C(=O)N(C)CC(=O)N[C@@H](CCc2ccc(Cl)c(Cl)c2)C(=O)N2C[C@H](OCC)C[C@H]2C(=O)NC2(CC(C)(C)C2)C(=O)N(C)[C@@H](C2CCCC2)C(=O)N(C)[C@H](C(=O)N(C)C)CC(=O)N1C .
result: 102

query: // output IC50; input CCCOC[C@H]1C(=O)N[C@@H]([C@@H](C)CC)C(=O)N(C)CC(=O)N(C)[C@H]2C/C=C\CCN(C2=O)[C@@H](Cc2ccc(C)cc2)C(=O)N(C)CC(=O)N[C@@H](CCc2cc(F)c(C(F)(F)F)c(F)c2)C(=O)N2C[C@H](OCC)C[C@H]2C(=O)NC2(CC(C)(C)C2)C(=O)N(C)[C@@H](CC(C)(C)C)C(=O)N(C)[C@H](C(=O)N(C)C)CC(=O)N1C ; system human lung cancer strain NCI-H441;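 note: cell proliferation inhibition after four days measured by CellTiter-Glo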
result: 5.1

query: Given CC[C@H](C)[C@@H]1NC(=O)[C@H](CC(C)C)N(C)C(=O)C[C@@H](C(=O)N2CCOCC2)N(C)C(=O)[C@H](C2CCCC2)N(C)C(=O)C2(CCCC2)NC(=O)[C@@H]2CCCN2C(=O)[C@H](CCc2ccc(C(F)(F)F)c(Cl)c2)NC(=O)CN(C)C(=O)[C@H](Cc2ccc(C)cc2)N(CCC(C)(C)C)C(=O)[C@@H]2CCN2C(=O)[C@H](C)N(C)C1=O [PP0087] ([NMeL]I[NMeA][Aze][X34][Sar][hPhe(3-Cl-4-CF3)]P[Ac5c][NMeGly(cPent)][NMeD]-Morpholide; lactam N-11) , report its IC50 on human lung cancer strain NCI-H441.
result: 24

query: Fill: IC50 (human lung cancer strain NCI-H441) for this molecule CCO[C@@H]1C[C@H]2C(=O)NC3(CCC3)C(=O)N(C)[C@@H](C(CC)CC)C(=O)N(C)[C@H](C(=O)N3CCOCC3)CC(=O)N(C)[C@@H](CC)C(=O)N[C@@H]([C@@H](C)CC)C(=O)N(C)CC(=O)N(C)[C@H]3C/C=C\CCN(C3=O)[C@@H](Cc3ccc(C(F)(F)F)cc3)C(=O)N(C)CC(=O)N[C@@H](CCc3cc(F)c(C(F)(F)F)c(F)c3)C(=O)N2C1
result: 58.8

query: System human lung cancer strain NCI-H441. Read-out IC50. Item CCO[C@@H]1C[C@H]2C(=O)NC3(CCC3)C(=O)N(C)[C@@H](C3CCCC3)C(=O)N(C)[C@H](C(=O)N(C)C)CC(=O)N(C)[C@@H](CC3CCC3)C(=O)N[C@@H]([C@@H](C)CC)C(=O)N(C)CC(=O)N(C)[C@H]3C/C=C\CCN(C3=O)[C@@H](Cc3ccc(C(F)(F)F)cc3)C(=O)N(C)CC(=O)N[C@@H](CCc3cc(F)c(C(F)(F)F)c(F)c3)C(=O)N2C1 . Report value.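 Note: cell proliferation inhibition after four days measured by CellTiter-Glo.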
result: 6.5

query: For human lung cancer strain NCI-H441, give the measured IC50 of the entry CC[C@H](C)[C@@H]1NC(=O)[C@H](CC(C)C)N(C)C(=O)C[C@@H](C(=O)N(C)C)N(C)C(=O)[C@H](C2CCCC2)N(C)C(=O)C2(CCC2)NC(=O)[C@@H]2CCCN2C(=O)[C@H](CCc2cc(F)c(C(F)(F)F)c(F)c2)NC(=O)CN(C)C(=O)[C@H](Cc2ccc(C(F)(F)F)cc2)N2CC/C=C\C[C@@H](C2=O)N(C)C(=O)CN(C)C1=O
result: 24

---

Molecular target: GDP-bound KRAS wild-type protein (Homo sapiens)
Sequence (P01116 whole entry): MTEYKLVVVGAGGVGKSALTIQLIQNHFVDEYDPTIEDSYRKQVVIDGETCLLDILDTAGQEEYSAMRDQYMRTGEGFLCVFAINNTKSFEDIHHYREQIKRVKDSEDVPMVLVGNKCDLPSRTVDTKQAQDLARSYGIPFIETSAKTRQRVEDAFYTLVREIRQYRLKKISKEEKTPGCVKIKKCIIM
Assay: Binding to KRAS by surface plasmon resonance (SPR), Single Cycle Kinetics
Details: SPR, Single Cycle Kinetics, GDP-bound KRAS wild-type protein; read-out: KRAS KD
VALUE TYPE: Kd (nM)
Give the value in nM but do not write nM after it.

query: Item CCC[C@H]1C(=O)N[C@@H]([C@@H](C)CC)C(=O)N2CCC[C@H]2C(=O)N(C)[C@H]2C/C=C\CCN(C2=O)[C@@H](Cc2ccc(C)cc2)C(=O)N(C)CC(=O)N[C@@H](CCc2ccc(C(F)(F)F)c(OC)c2)C(=O)N2C[C@@H](C)C[C@H]2C(=O)N(C)C2(CCC2)C(=O)N(C)[C@@H](C2CCCC2)C(=O)N(C)[C@H](C(=O)N(C)C)CC(=O)N1C : provide Kd
result: 0.045

query: State, in one line, measured Kd of CC[C@H](C)[C@@H]1NC(=O)[C@H](CC(C)C)N(C)C(=O)C[C@@H](C(=O)N(C)C)N(CCC2CCCC2)C(=O)[C@H](C2CCCC2)N(C)C(=O)C2(CCC2)NC(=O)[C@@H]2CC(F)(F)CN2C(=O)[C@H](CCc2ccc(C(F)(F)F)c(Cl)c2)NC(=O)CN(C)C(=O)[C@H](Cc2ccc(F)cc2)N2CCCCC[C@@H](C2=O)N(C)C(=O)CN(C)C1=O
result: 7.7

query: Item CCO[C@@H]1C[C@H]2C(=O)N(C)C3(CC(C)(C)C3)C(=O)N(C)[C@@H](C3CCCC3)C(=O)N(C)[C@H](C(=O)N(C)C)CC(=O)N(C)[C@H]3CCCC/C=C/c4ccc(cc4)C[C@@H](C(=O)N(C)CC(=O)N[C@@H](CCc4ccc(Cl)c(Cl)c4)C(=O)N2C1)N1CC/C=C\C[C@@H](C1=O)N(C)C(=O)CN(C)C(=O)[C@H]([C@@H](C)CC)NC3=O : provide Kd
result: 0.066
